# Species: Homo sapiens
# protocol notes: Liver toxicity in human assessed as induction of drug-induced liver injury by measuring severity class index
readout kind: DILI_severity_class

Cc1nc([N+](=O)[O-])cn1-c1ccc([N+](=O)[O-])cc1 : 8

Give one value of DILI_severity_class per listed compound.
1. CC(N)C12CC3CC(CC(C3)C1)C2 (stereo not drawn)
2. CN(C)CCC[C@@]1(c2ccc(F)cc2)OCc2cc(C#N)ccc21

Solution:
[0, 7]

###

# Species on record: Homo sapiens
# protocol notes: Liver toxicity in human assessed as induction of drug-induced liver injury by measuring verified drug-induced liver injury concern status
readout kind: DILI_Concern

C1CNCCN1.C[C@]12CC[C@@H]3c4ccc(OS(=O)(=O)O)cc4CC[C@H]3[C@@H]1CCC2=O [ESTROPIPATE] : Ambiguous-Dili-Concern
CSCC[C@H](NC(=O)[C@H](Cc1c[nH]c2ccccc12)NC(=O)CCNC(=O)OC(C)(C)C)C(=O)N[C@@H](CC(=O)O)C(=O)N[C@@H](Cc1ccccc1)C(N)=O : No-Dili-Concern
N[C@@H]1[C@H]2CN(c3nc4c(cc3F)c(=O)c(C(=O)O)cn4-c3ccc(F)cc3F)C[C@@H]12 : Most-Dili-Concern
CNS(=O)(=O)Cc1ccc2[nH]cc(CCN(C)C)c2c1 : Ambiguous-Dili-Concern

Field: DILI_Concern. Fill in for each record below.
1. C[C@@](Cc1ccc(O)c(O)c1)(NN)C(=O)O [CARBIDOPA ANHYDROUS]
2. Cc1ccc(O)c([C@H](CCN(C(C)C)C(C)C)c2ccccc2)c1
3. C#CCN[C@@H]1CCc2ccccc21
4. CNCCCN1c2ccccc2CCc2ccccc21
5. C[C@@H](c1ncncc1F)[C@](O)(Cn1cncn1)c1ccc(F)cc1F

Solution:
["Ambiguous-Dili-Concern", "No-Dili-Concern", "Ambiguous-Dili-Concern", "Ambiguous-Dili-Concern", "Most-Dili-Concern"]

###

# Organism: Homo sapiens
# protocol notes: Liver toxicity in human assessed as induction of drug-induced liver injury by measuring verified drug-induced liver injury concern status
readout kind: DILI_Concern

CCC(=O)C(CC(C)N(C)C)(c1ccccc1)c1ccccc1 (stereo unspecified) : Ambiguous-Dili-Concern
CC(C)NCC(O)COc1ccc(CC(N)=O)cc1 (stereo unspecified) : Less-Dili-Concern
C[C@](N)(Cc1ccc(O)cc1)C(=O)O : No-Dili-Concern
CNC(=O)c1c(I)c(NC(C)=O)c(I)c(C(=O)[O-])c1I.[Na+] [IOTHALAMATE SODIUM] : No-Dili-Concern
CCc1nc(N)nc(N)c1-c1ccc(Cl)cc1 : Less-Dili-Concern

Please give DILI_Concern for each item listed below.
1. CC[N+](CC)(CCNC(=O)C(=O)NCC[N+](CC)(CC)Cc1ccccc1Cl)Cc1ccccc1Cl
2. CNCCCC12CCC(c3ccccc31)c1ccccc12
3. COc1cc(C(C)=O)ccc1OCCCN1CCC(c2noc3cc(F)ccc23)CC1
4. OCCN1C[C@H](O)[C@@H](O)[C@H](O)[C@H]1CO
5. CC(NN)c1ccccc1 (stereo unspecified)
6. O=c1[nH]cnc2c1ncn2[C@H]1CC[C@@H](CO)O1

Solution:
["No-Dili-Concern", "Ambiguous-Dili-Concern", "Ambiguous-Dili-Concern", "No-Dili-Concern", "Most-Dili-Concern", "Most-Dili-Concern"]
